Test: pKa of the amino group of the compound
Measurement setup: pKa, Table 4
Endpoint name: pKa

> print(dat)
                               compound  numeric.readout
1                                NCCCCO             10.3
2                          NCS(=O)(=O)O             5.75
3  NCc1ccc(O)cc1 [4-hydroxybenzylamine]             9.14

* * *

System: aggregated platelets induced by ADP
Test: Platelet disaggregation rate of blood samples with ADP-induced platelet aggregation (hematology analyzer, PLT_O)
Measurement setup: Table 2; compound 0.01 mol/L, pH 14, ADP 0.01 mmol/L
# Platelet disaggregation rate >= 10% gives yes, anything below gives no

> print(dat)
                                   compound  class.name
1     CC(=O)O [acetate, reference compound]         yes
2              Nc1ccc(O)cc1 [4-aminophenol]         yes
3  CCCCc1ccc(O)cc1 [4-butylphenol, reference compound]          no
4  CCS(=O)(=O)O [ethanesulfonic acid, reference compound]         yes
5                       NCCO [ethanolamine]         yes
6    Oc1ccccc1 [phenol, reference compound]          no
7  CCCC(=O)O [butyric acid, reference compound]         yes
8   Nc1ccc(S(=O)(=O)O)cc1 [sulfanilic acid]         yes
9    C=O [formaldehyde, reference compound]         yes
